The reported numbers originate from ChEMBL document CHEMBL4513216.

As shown below, each of these molecules has a reported cytotoxicity at 10 µM value.
Run description: Toxicity liver stage against HepG2, at 10uM
Format: cell-based
Set-up: test concentration 10 uM, cell line HepG2-A16-CD81EGFP
Settings: human, HepG2-A16-CD81EGFP cells; read-out: INHIBITION
Recorded endpoint: cytotoxicity at 10 µM (%)

{"Molecule": "NC(=O)c1ccc(OCC(=O)N2CCCC2c2ccc[nH]2)cc1 (centres undefined)", "Endpoint result": -5.82}
{"Molecule": "CCOc1cccc(CNC(=O)CN2CCC3(CCOC3)C2)c1 (centres undefined)", "Endpoint result": -42.1}
{"Molecule": "CC(C1CC1)N(C(=O)NCCCn1nc2ccccn2c1=O)C1CC1 (centres undefined)", "Endpoint result": -21.4}
{"Molecule": "Cc1cncc(CN2C[C@@H](O)[C@H](Oc3ccccc3)C2)c1", "Endpoint result": 0.442}
{"Molecule": "Cc1nccc(CNC(=O)NC(c2ncc(C)s2)C2CC2)n1 (centres undefined)", "Endpoint result": -0.898}
{"Molecule": "CCCC(C)NC1CCN(c2ccc(-n3ccnc3C)cc2)CC1 (centres undefined)", "Endpoint result": -3.67}
{"Molecule": "CN(CCc1ccccn1)c1cc(N2CCCCC2)ncn1", "Endpoint result": 3.61}
{"Molecule": "Cc1cccc(N2CCN(C(=O)CN3CCN(CCO)CC3)CC2)c1", "Endpoint result": -15.5}
{"Molecule": "CCn1c(Cn2cncn2)nnc1C1CCN(C2CCOCC2)CC1", "Endpoint result": 9.23}
{"Molecule": "Cc1cccc(NC(=O)CN2C(=O)CC(C)(C)c3ccccc32)n1", "Endpoint result": 2.2}
{"Molecule": "CCOc1ccc(S(=O)(=O)N(C)Cc2cnn(CC)c2)cc1", "Endpoint result": 11.6}
{"Molecule": "O=C(CCc1ccco1)Nc1ncn(CC(=O)N2CCCCCC2)n1", "Endpoint result": -2.29}
{"Molecule": "O=c1[nH]nc2nc(N3CCSCC3)ccn12", "Endpoint result": -13.5}
{"Molecule": "Cc1nn(C)c(C)c1C(C)NCc1ccc(OC(C)C)cc1 (centres undefined)", "Endpoint result": 15.3}
{"Molecule": "CC(C)C(=O)N1CC[C@@H]2CN(Cc3ccncc3)S(=O)(=O)[C@@H]2CC1", "Endpoint result": 5.38}
{"Molecule": "Cc1cnn(C2CCCN(C(=O)Cc3c(C)nn(C)c3C)C2)c1 (centres undefined)", "Endpoint result": -6.71}
{"Molecule": "COc1cccc(CN(C)C(=O)CSc2ccc3c(c2)OCCO3)c1", "Endpoint result": -7.97}
{"Molecule": "COc1ccc(OC)c(C(=O)N2C[C@@H]3CC[C@H]2CN(C)C3)c1", "Endpoint result": 4.61}
{"Molecule": "Cc1ccnc(C(NC(=O)c2sc(C)nc2C)C2CC2)n1 (centres undefined)", "Endpoint result": -11}
{"Molecule": "CC(C)(C)c1n[nH]c(C2CN(C(=O)CCCn3cccn3)CCO2)n1 (centres undefined)", "Endpoint result": -0.839}
{"Molecule": "CC(SCCC(=O)NC(N)=O)c1c(F)cccc1F (centres undefined)", "Endpoint result": 6.93}
{"Molecule": "COc1cccc(-n2cc(-c3ccnc(NC(CO)C(C)C)n3)cn2)c1 (centres undefined)", "Endpoint result": 2.74}
{"Molecule": "CCc1nccn1C1CCCN(C(=O)c2ccc3c(c2)OCO3)C1 (centres undefined)", "Endpoint result": -12.6}
{"Molecule": "CCn1ncc2c1CCCC2NCc1ccc(OC)cc1OC (centres undefined)", "Endpoint result": -2.06}
